# protocol.description: Solubility Studies in FaSSIF, FeSSIF, FaSSGF (24 hours, room temperature, UPLC-UV)
# Type: physicochemical
# particulars: kinetic from dmso stock; solubility in FeSSIF, 24 hours at room temperature; read-out: FeSSIF
measure.name: solubility kinetic at 24 h

Would you please look over these solved cases?
[[record]]
compound = "CC(c1ccccc1F)c1c(F)ccc2c1NC(NCc1ncccc1F)=NS2(=O)=O (centres unmarked) [Compound 9-1]"
value_reported = "74 µM"

[[record]]
compound = "CC(c1ccccc1F)c1c(F)ccc2c1NC(NCc1cccc(F)n1)=NS2(=O)=O (single isomer, unassigned)"
value_reported = "186 µM"

[[record]]
compound = "O=S1(=O)N=C(NCc2ncccc2F)Nc2c(Oc3ccccc3Cl)cc(F)cc21"
value_reported = "< 12.5 µM"

[[record]]
compound = "C[C@@H](c1ccccc1F)c1c(F)c(F)cc2c1NC(NCc1ncccc1F)=NS2(=O)=O"
value_reported = "178 µM"

[[record]]
compound = "CC(c1ccc(F)cc1)c1c(F)ccc2c1NC(NCc1ncccc1F)=NS2(=O)=O (single isomer, unassigned)"
value_reported = "37 µM"

[[record]]
compound = "O=S1(=O)N=C(NCc2ncccc2F)Nc2c1ccc(F)c2Oc1ccccc1Cl"
value_reported = "< 12.5 µM"


Input: Give the measured solubility kinetic at 24 h of CC(c1ccccc1F)c1c(F)ccc2c1NC(NCc1cccc(F)c1)=NS2(=O)=O (single isomer, unassigned) .
Output: 136 µM

Input: How about this compound: CC(c1ccccc1F)c1c(F)ccc2c1NC(NCc1ncccc1F)=NS2(=O)=O (single isomer, unassigned) [Compound 10-1B]
Output: 200 µM
